Tgt: T1, human programmed cell death protein 1 (hPD-1) C93S (aa 24-167) (Homo sapiens, UniProt Q15116, C93S)
T1 construct: made as a fusion with a TEV site and human Fc; the Fc was cut off with TEV protease; source: Expi293F, purified (Protein A, TEV cleavage of Fc, SEC; monomer fractions); not shown: Fc (human), C-terminal, cleaved
Protocol Description: SPR; Carterra LSA; Fab from the ammonium sulfate precipitate of the culture supernatant immobilised on a NiHC200M chip; hPD-1 (1-1024 nM) or mPD-1-Fc (4-1024 nM) as analyte, fourfold dilution series, no regeneration; HBS-EP pH 7.4, 25 °C; medians over the spots of a construct, KD = koff/kon
Conditions: one partner purified
Readout Name: koff (s⁻¹)

INSERT INTO results (binder, readout_name, test_value) VALUES
  ('toripalimab Fab L.P100R (Fab, V domains shown, as the heavy chain of Sm3; light chain of Sm3 with this change; numbers count from the chain''s first residue; source: Brevibacillus, culture supernatant (ammonium sulfate precipitate); not shown: 6xHis, C-terminal, kept; 6xHN, C-terminal, kept) VH: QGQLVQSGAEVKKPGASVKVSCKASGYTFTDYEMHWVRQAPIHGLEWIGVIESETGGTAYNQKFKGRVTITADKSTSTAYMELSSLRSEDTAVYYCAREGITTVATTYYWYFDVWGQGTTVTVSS VL: DVVMTQSPLSLPVTLGQPASISCRSSQSIVHSNGNTYLEWYLQKPGQSPQLLIYKVSNRFSGVPDRFSGSGSGTDFTLKISRVEAEDVGVYYCFQGSHVRLTFGQGTKLEIK', 'koff', '1.32e-05');
